Some compounds, each annotated with its measured Avg. Encapsulation Efficiency (EE) %.
PROTOCOL TEXT: LNP Characteristics (size, PDI, encapsulation efficiency) of LNPs formulated with novel ionizable lipids
Format: physicochemical
COND: LNP formulated with the ionizable lipid, DOPE, Cholesterol, DMG-PEG2000
Just so you know, I need the unit written after the number.

CCCCCCCCCCCCCCCCC(=O)N(C(CCCCCCC)CCCCCCC)C(CC1CCN(C)CC1)C(=O)NC1CCCCC1 (stereo not shown); 91.0%
CCCCCCCCCCC(CCCCCCCC)CN(C(=O)CCC(C)C1CCC2C3CC(O)C4CC(O)CCC4(C)C3CCC12C)C(CC1CCN(C)CC1)C(=O)NC12CC3CC(CC(C3)C1)C2 (stereo not shown); 87.9%
CCCCCCCCCCCCCCCCC(=O)N(C(CCCCCCC)CCCCCCC)C(C(=O)NC12CC3CC(CC(C3)C1)C2)C1CCN(CC)CC1 (stereo not shown); 90.6%
CCCCCCCCCCCCOC(=O)CCC(=O)N(C(CCCCCCCCC)CCCCCCCCC)C(C(=O)NC1CCCCCC1)C1CCN(CC)CC1 (stereo not shown); 86.8%
CCCCCCCCCCCCCCCC(=O)N(C(CCCCCCCC)CCCCCCCC)C(C(=O)NC1=CCCCC1)C1CCN(CC)CC1 (stereo not shown); 90.4%

May I ask what Avg. Encapsulation Efficiency (EE) % has been recorded for CCCCCCCCCCCC(CCCCCCCCCCC)N(C(=O)CCCCCCCCC)C(C(=O)NC(C)(C)C)C1CCN(CC)CC1 (stereo not shown) ?
97.9%

May I ask what Avg. Encapsulation Efficiency (EE) % has been recorded for CCCCCCCCCCCC(=O)N(CC(CCCCCCCC)CCCCCCCCCC)C(CC1CCN(C)CC1)C(=O)NC1CCCCCC1 (stereo not shown) ?
99.1%

---

PROTOCOL TEXT: LNP Characteristics (size, PDI, encapsulation efficiency) of LNPs formulated with novel ionizable lipids
Assay type: physicochemical
COND: LNP formulated with the ionizable lipid, DOPE, Cholesterol, DMG-PEG2000
RESULT TYPE: Avg. PDI
Note: the reply should be a number with no unit written.

Examples from the recorded data:
CCCCCCCCCCCCC(=O)N(CC(CCCCCCCCCC)CCCCCCCCCCCC)C(CC1CCN(C)CC1)C(=O)NC(C)(C)C (stereo not shown) [Lipid P51C12]; 0.26
CCCCCCCC/C=C\CCCCCCCC(=O)N(C(CCCCCCC)CCCCCCC)C(C(=O)NC1CCCCCC1)C1CCN(CC)CC1 (stereo not shown) [Lipid P149A1]; 0.10
CCCCCCCCCCCCCCCC(=O)N(C(CCCCCCCC)CCCCCCCC)C(C(=O)NC1=CCCCC1)C1CCN(CC)CC1 (stereo not shown) [Lipid P6A2]; 0.12

May I ask what Avg. PDI has been recorded for CCCCCCCCCCCCCC(=O)N(C(CCCCCCC)CCCCCCC)C(C(=O)NC1CCCCCC1)C1CCN(CC)CC1 (stereo not shown) [Lipid P38D1] ?
0.12

---

PROTOCOL TEXT: LNP Characteristics (size, PDI, encapsulation efficiency) of LNPs formulated with novel ionizable lipids
Format: physicochemical
COND: LNP formulated with the ionizable lipid, DOPE, Cholesterol, DMG-PEG2000
Some compounds, each annotated with its measured Avg. Size.
The reply should contain only the number, in nm.

CCCCCCCCCCCCCC(=O)N(C(CCCCCCC)CCCCCCC)C(C(=O)NC1CCCCCC1)C1CCN(CC)CC1 (stereo not shown) [Lipid P38D1]; 179.1

May I ask what Avg. Size has been recorded for CCCCCCCCCCCCC(CCCCCCCCCC)CN(C(=O)CCC(C)C1CCC2C3CC(O)C4CC(O)CCC4(C)C3CCC12C)C(C(=O)NC12CC3CC(CC(C3)C1)C2)C1CCN(CC)CC1 (stereo not shown) [Lipid P161F6] ?
215

May I ask what Avg. Size has been recorded for CCCCCCCCCCCCCCCCC(=O)N(C(CCCCCCC)CCCCCCC)C(CC1CCN(C)CC1)C(=O)NC1CCCCC1 (stereo not shown) [Lipid P30B7] ?
151.6

May I ask what Avg. Size has been recorded for CCCCCCCCCCCCCCC(=O)N(C(CCCCCCC)CCCCCCC)C(CC1CCN(C)CC1)C(=O)NC1CCCCCC1 (stereo not shown) [Lipid P40D7] ?
149.2
